Value source: ChEMBL document CHEMBL4513216

ASSAY_DETAILS: Toxicity liver stage against HepG2, at 10uM
Assay type: cell-based
Design: test concentration 10 uM, cell line HepG2-A16-CD81EGFP
STUDY_CONDITIONS: human, HepG2-A16-CD81EGFP cells; read-out: INHIBITION
For each record, write down the corresponding cytotoxicity at 10 µM.
The answer is to be given in %; state only the numeric part.

Param item = COCCn1cc2c(n1)C(CNC(=O)c1cc(C)[nH]c1C)OCC2 (stereo unspecified) ; retrieve measured cytotoxicity at 10 µM.
8.81

Again, but for Cc1ccsc1CN1C[C@@H]2COC[C@]2(CNC(=O)c2ccco2)C1
-95.5

Again, but for Cc1nc(CO[C@H]2CN(Cc3ccccn3)[C@@H]3CCCO[C@H]23)cs1
1.33

Again, but for CCc1nc(CNC2CCCCNC2=O)cs1 (stereo unspecified)
8.74

Again, but for CCN1CCN(S(=O)(=O)c2c[nH]c(C(C)C)n2)c2ccccc21
4.65

Again, but for O=C(O)c1ccn(-c2ccccc2NC(=O)c2ccccc2Cl)n1
-161

Again, but for COCCc1noc(CN(C)C2CCCN(c3ccc(C)nn3)C2)n1 (stereo unspecified)
19.3

Again, but for Cc1cc(NC(=O)N(C)C2CCN(c3ccccc3F)C2=O)n(C)n1 (stereo unspecified)
-7.52

Again, but for COC(=O)C(c1ccccc1)N(C)C(=O)c1ccnc(C)n1 (stereo unspecified)
1.4

Again, but for CSCCC(O)C(=O)N1CCN(Cc2cccc(Cl)c2)CC1 (stereo unspecified)
6.48

Again, but for O=C(O)CCn1ccc(=O)c2cc(F)ccc21
1.09

---

For each record, write down the corresponding cytotoxicity at 10 µM.
ASSAY_DETAILS: Toxicity liver stage against HepG2, at 10uM
Assay type: cell-based
Set-up: test concentration 10 uM, cell line HepG2-A16-CD81EGFP
STUDY_CONDITIONS: human, HepG2-A16-CD81EGFP cells; read-out: INHIBITION
The answer is to be given in %; state only the numeric part.

Param item = Fc1ccc(N2CCCN(c3ccc(Cn4ccnc4)cn3)CC2)cc1 ; retrieve measured cytotoxicity at 10 µM.
26.2

Again, but for CSC(C)C(=O)NS(=O)(=O)c1ccc(F)c(C(F)(F)F)c1 (stereo unspecified)
-6.52

Again, but for Cc1nc2ccccn2c1CC(=O)N[C@@H]1CC[C@@H](N2CCOCC2)[C@@H]1O
-1.68

Again, but for COCc1noc(C2(c3ccc(Cl)cc3)CCOCC2)n1
1.86

Again, but for Cc1cc(C)nc(CCNC(=O)C(c2ccc(F)cc2)N(C)C)n1 (stereo unspecified)
-40.1

Again, but for CCc1c(C)sc2ncnc(N3CCN(C4CCOCC4)CC3)c12
8.48

Again, but for Cc1cnc(C(=O)NC(CN2CCCC2=O)c2ccccc2)cn1 (stereo unspecified)
-8.8

Again, but for CN1CCN(CCc2ncnn2-c2ccc3c(c2)OCO3)CC1
-0.00326

Again, but for CS(=O)(=O)c1cc(Cl)cnc1C1CCN(C(=O)C2CCCO2)CC1 (stereo unspecified)
4.38

Again, but for COCCN1C[C@H]2CCN(C(=O)c3cc(C)on3)CC[C@H]2S1(=O)=O
-1.69

Again, but for CCN1CC2(CCCCN2C(=O)c2ccn(C)n2)CC1=O (stereo unspecified)
10.5

Again, but for COc1ccc(C2(C(=O)N3CC(c4cccnc4)C3)CC2(C)C)cc1 (stereo unspecified)
12.3

Again, but for COCCCn1ccc(NC(=O)NCCc2cccnc2)n1
-0.996

Again, but for CC(C)(C)c1noc(CCC(=O)N(CC2CCOC2)C2CC2)n1 (stereo unspecified)
2.66

Again, but for Cn1ccc(C(=O)N2CCC(Cc3cnc4[nH]ccc4c3)C2)n1 (stereo unspecified)
-5

Again, but for CCNc1ncc(C(=O)N2Cc3nc(C)[nH]c(=O)c3C2)cn1
-2.19

Again, but for COC(=O)c1ccc2c(-c3ccnc(NCCO)n3)c[nH]c2c1
-12.8

Again, but for COc1cc(C(C)=O)ccc1SCC(=O)Nc1cccc(C)n1
15.1

Again, but for O=C(NCCc1ccsc1)Nc1cccnc1N1CCCC1
-6.78

Again, but for COc1ncc(CN2C[C@@H]3C[C@@H](O)CN3C[C@@H]2Cc2ccccc2)cn1
-6.86

Again, but for COc1ccc(CCNC(=O)c2ccc(=O)n(C)c2)c(Cl)c1
-10.3

Again, but for O=C(CCc1nc(C2CC2)no1)c1ccccc1
-6.43

Again, but for O=C(NCC1(N2CCOCC2)CCSC1)Nc1ccccn1 (stereo unspecified)
8.64

Again, but for CC(NC(=O)Nc1cccnc1N1CCOCC1)c1ccccn1 (stereo unspecified)
0.456

Again, but for Cc1nc(C)c(S(=O)(=O)NC(=O)c2ccoc2)s1
-6.91

Again, but for CN(C)CCN1C(=O)CCC12CCN(C(=O)c1cccnc1)CC2
6.41

Again, but for CC1(C)Oc2ccc(S(=O)(=O)NCCCn3ccnc3)cc2NC1=O
14.5

Again, but for CCOCc1ncn2c1CN(C(=O)Nc1ccccc1)CC2
3.54

Again, but for COC(=O)c1oc(CNC(C)(C)c2ccc3c(c2)OCCO3)cc1C
5.36

Again, but for COC(=O)[C@@H]1Cc2c[nH]c3cccc(c23)[C@H](CC(C)C)N1
9.57

Again, but for COCC(=O)N1CCCC1c1cccc(Cc2ccccc2F)n1 (stereo unspecified)
-37.7

Again, but for O=C1CCC(C(=O)N(Cc2ccsc2)CC2CCCO2)=NN1 (stereo unspecified)
-7.97

Again, but for COc1ccc(CN2C[C@@H]3COC[C@@H](CC(=O)N4CCCC4)[C@@H]3C2)cc1
-18.8

Again, but for CCn1nc(C)c2nnn(CC(=O)Nc3cccc(F)c3)c(=O)c21
8.44

Again, but for CNC(=O)N1CCCCC1c1nnc2n1CCCC2 (stereo unspecified)
-6.1

Again, but for COc1ccc(CC(=O)N2CCCC2Cn2cccn2)cc1F (stereo unspecified)
-0.587

Again, but for Cc1ccc(CN2CCC3(CC2)CN(C(=O)c2cnccn2)CCO3)o1
-4

Again, but for COc1ccccc1OC1(C(=O)O)CCN(c2ccccn2)CC1
4.52

Again, but for Cc1cc2[nH]c(=O)oc2cc1S(=O)(=O)N1C[C@@H](N(C)C)[C@H](C(C)C)C1
0.234

Again, but for CN(Cc1cccnc1)CC1CC12CCN(Cc1nccs1)CC2 (stereo unspecified)
10.2

Again, but for CN1CCc2[nH]nc(C(=O)N3CCC4(CN(C)C(=O)O4)C3)c2C1 (stereo unspecified)
-46.4

Again, but for COc1ccc(Cl)cc1CN(C)C(=O)CN1C(=O)CCC1C (stereo unspecified)
0.277

Again, but for Cc1cccc(C(=O)N2CCCN(Cc3cnn(C)c3)CC2)n1
-10.5

Again, but for Cc1cc(C)cc(Nc2nc(C)cc(=O)n2CC(=O)NC(C)C)c1
-7.3

Again, but for O=C(NS(=O)(=O)c1cccc(C(F)(F)F)c1)c1cnsn1
-2.98

Again, but for O=C1CC(c2cccc(Cl)c2)c2snc(C(=O)O)c2N1 (stereo unspecified)
2.91
